- target.system: recombinant mouse NAPE-PLD (Mus musculus)
- Construct: hexahistidine (His6) (C); made in house; host or cells: E. coli
- Sequence (Q8BH82 1-396): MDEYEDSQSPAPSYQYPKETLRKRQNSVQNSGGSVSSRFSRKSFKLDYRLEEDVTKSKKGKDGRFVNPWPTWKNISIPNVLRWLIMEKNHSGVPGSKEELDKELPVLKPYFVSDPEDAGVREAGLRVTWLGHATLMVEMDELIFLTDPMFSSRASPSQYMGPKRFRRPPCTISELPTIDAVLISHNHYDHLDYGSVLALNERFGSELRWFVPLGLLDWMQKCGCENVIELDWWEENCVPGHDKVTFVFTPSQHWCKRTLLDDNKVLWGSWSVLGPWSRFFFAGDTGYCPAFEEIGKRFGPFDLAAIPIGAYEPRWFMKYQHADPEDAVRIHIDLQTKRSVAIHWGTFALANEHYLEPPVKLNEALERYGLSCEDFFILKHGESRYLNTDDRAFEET
- procedure.details: In vitro fluorescence NAPE-PLD activity assay (HTS/CRC) with recombinant mouse NAPE-PLD and PED-A1
- Type: biochemical
- measurement.context: Table 2; rNAPE-PLD activity assay; read-out: EC50
- Experimental: Using the fluorogenic NAPE substrate, PED-A1, and recombinant mouse NAPE-PLD (rNAPE-PLD), an in vitro high-throughput (HTS) assay was conducted to screen ˜40,000 compounds for their ability to modulate NAPE-PLD activity. […] In vitro fluorescence NAPE-PLD activity assays using recombinant NAPE-PLD and either PED-A1 or flame-NAPE as fluorogenic substrate were performed as previously described except with small modifications as noted below. […]
readout.name: EC50 (µM)
Give bare numbers, in µM.

# compound, target.system, value
data = [
    ("Cc1cc(F)ccc1S(=O)(=O)N1CCC(C(=O)Nc2nc3c(C)cccc3s2)CC1 [MRJ-058A]", "recombinant mouse NAPE-PLD (Mus musculus)", 2.9),
    ("O=C(Nc1nc2ccccc2s1)C1CCN(S(=O)(=O)c2ccc(F)cc2)CC1", "recombinant mouse NAPE-PLD (Mus musculus)", 0.39),
    ("Cc1cc(C)c2sc(NC(=O)C3CCN(S(=O)(=O)c4ccc(F)cc4)CC3)nc2c1", "recombinant mouse NAPE-PLD (Mus musculus)", 0.28),
]

List EC50 for every entry below, keeping the order given.
1. Cc1ccc2nc(NC(=O)C3CCN(S(=O)(=O)c4ccc(Cl)cc4)CC3)sc2c1
2. Cc1cccc2sc(NC(=O)C3CCN(S(=O)(=O)c4cnn(C)c4)CC3)nc12 [MRJ-058D]
3. Cc1ccc2sc(NC(=O)C3CCN(S(=O)(=O)c4ccc(F)cc4)CC3)nc2c1C
4. Cc1ccc2nc(NC(=O)C3CCN(S(=O)(=O)c4ccc(F)cc4)CC3)sc2c1

1: 2.38; 2: 1.5; 3: 1.5; 4: 0.24

The values you see were collected from patent US20250250265A1.
